Origin of measurements: PubChem BioAssay (Tox21)

method_notes: qHTS assay to identify small molecule antagonists of the estrogen receptor alpha (ER-alpha) signaling pathway using the BG1 cell line in the presence of 0.1 nM 17-beta-estradiol - cell viability counter screen (AID 1259241); further: nearly all actives have a fitted effect of over 40% in size
experimental_conditions: VM7Luc4E2 (BG1) viability, CellTiter-Fluor protease, 22 h, 0.1 nM estradiol agonist added; series mostly up to 92.4 µM
Results filed as inconclusive are left out. Calls of active or inactive are those of the source. The call rests on the fitted dose curve; in most records, active means well fitted cell-killing curve with a large enough effect in the repeat runs; inconclusive means weak or mixed curves, or effect the other way; inactive means flat fitted curve, though single readings scatter.
endpoint_label: activity change, negative = cytotoxicity

Known results for compounds:
CC(CCO)CCCC(C)(C)O (centres undefined) | inactive
O=C(O)c1ccccc1S | inactive
NC(=O)c1ncn([C@@H]2O[C@H](CO)[C@@H](O)[C@H]2O)c1O | inactive
CC1(C)OC(=O)Nc2ccc(Br)cc21 | inactive
CCO[Si](C)(OCC)OCC | inactive
C1=C\CC/C=C\CC/C=C\CC/1 | inactive
CCCOc1ccccc1-c1nc2n[nH]nc2c(=O)[nH]1 | inactive
C=CCOCC(O)CS(=O)(=O)O (centres undefined) | inactive

Give reported activity change, negative = cytotoxicity value for `CN(C)CCn1nnnc1SCC1=C(C(=O)O)N2C(=O)[C@@H](NC(=O)Cc3csc(N)n3)[C@H]2SC1`
inactive

Assign activity change, negative = cytotoxicity to the following record: CCCC(C)CO (centres undefined)
inactive
